Reference source: paper PMC8725837

Assay system EGFR (Homo sapiens); read-out recorded as IC50.
endpoint.label: IC50

INSERT INTO assay_data (compound, measured) VALUES
  ('FC(F)(F)c1ccc(-c2cc(OCCCn3ccnc3)c3cc4c(cc3n2)OCO4)cc1 [12c]', '247 nM'),
  ('Clc1ccc(-c2cc(OCCCn3ccnc3)c3cc(Br)ccc3n2)cc1 [16a]', '222 nM'),
  ('Clc1ccc(-c2cc(OCCCN3CCOCC3)c3cc(Br)ccc3n2)cc1 [16b]', '313 nM'),
  ('CN1CCN(CCCOc2cc(-c3ccc(C(F)(F)F)cc3)nc3ccccc23)CC1 [10a]', '244 nM');
